Measured IC50 at 8 days values are reported for all entries that follow.
- Assay notes: Cell toxicity assay (CCK-8), MOLM-13
- Type: cell-based
- Run parameters: human, MOLM-13 cells, 8 day treatment, n = 3; read-out: CC50 MOLM-13 (Cellular IC50, 8-days incubation)
Dear colleague, please return just the value in µM, with no unit written.

compound="CC(C)C1CCN1Cc1ccc(CNC(=O)c2ccc3nncn3c2)cc1 (centres unmarked)" reported_result=6.06
compound="CC(C)[C@H]1CCN1Cc1cc2cnc(NC(=O)c3ccc4nncn4c3)cc2[nH]1 [SR-C-107 (R)]" reported_result=1.25

// below: IC50 at 8 days requested for another compound
### Prompt What value of measured IC50 at 8 days is listed for O=C(Nc1cc2[nH]c(CN3CCC3C3CC3)cc2cn1)c1ccc2nncn2c1 (centres unmarked) ?
### Response 6.96

* * *

Measured pIC50 values are reported for all entries that follow.
- Study target: NLuc-ENL YEATS (Homo sapiens, UniProt Q03111)
- Construct: DNA encoding the ENL YEATS domain (aa 1–148) was cloned into an NLuc containing plasmid
- Sequence (Q03111 1-148): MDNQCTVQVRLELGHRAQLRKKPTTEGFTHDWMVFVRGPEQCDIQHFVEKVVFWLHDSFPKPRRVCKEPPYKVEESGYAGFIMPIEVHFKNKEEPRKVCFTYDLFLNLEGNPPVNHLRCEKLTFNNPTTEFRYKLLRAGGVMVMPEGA
- Assay notes: ENL-NanoBRET inhibitor competitive assay
- Run parameters: HEK293T cells stably expressing NLuc-ENL YEATS, 1 μM Tracer 2, 2 h; mean ± SD, n = 3
Hey, just a heads up that pIC50 is the negative log base 10 of the concentration in molar.

Here's what some known entries look like.
molecule="CC(C)C1CCN1Cc1ccc(CNC(=O)c2ccc3nncn3c2)cc1 (centres unmarked)" readout_label=pIC50 reported_result=5.37
molecule="O=C(Nc1cc2[nH]c(CN3CCC3C3CC3)cc2cn1)c1ccc2nncn2c1 (centres unmarked)" readout_label=pIC50 reported_result=5.63
molecule="CC1CCN1Cc1ccc(CNC(=O)c2ccc3nncn3c2)cc1 (centres unmarked)" readout_label=pIC50 reported_result=5.87

// below: pIC50 requested for another molecule
### Prompt What value of measured pIC50 is listed for "CSc1ccc(CNC(=O)c2ccc3nncn3c2)cc1" ?
### Response 5.90

* * *

Measured IC50 values are reported for all entries that follow.
- Study target: ENL YEATS (Homo sapiens)
- Construct: final concentrations of 100 nM His-ENL YEATS, 100 nM Biotin-ENL-S1
- Sequence (Q03111 1-138 limits assumed): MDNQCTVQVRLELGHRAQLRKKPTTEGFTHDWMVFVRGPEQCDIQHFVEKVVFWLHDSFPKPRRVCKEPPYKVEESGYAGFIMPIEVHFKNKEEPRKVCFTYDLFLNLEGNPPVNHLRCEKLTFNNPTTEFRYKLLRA
- Assay notes: AlphaScreen assay with biotinylated ENL-S1 peptide
- Run parameters: inhibition of ENL YEATS binding to ENL-S1 peptide; mean ± SD, n = 3; read-out: Alpha IC50 (nM) for ENL YEATS
Dear colleague, please return just the value in nM, with no unit written.

Here's what some known entries look like.
molecule="CC(C)[C@@H]1CCN1Cc1ccc(CNC(=O)c2ccc3nncn3c2)cc1 [13 (S)]" study_target="ENL YEATS (Homo sapiens)" endpoint_unit=nM reported_result=970
molecule="CC(C)C1CCN1Cc1cc2cnc(NC(=O)c3ccc4nncn4c3)cc2[nH]1 (stereo not shown) [SR-C-107]" study_target="ENL YEATS (Homo sapiens)" endpoint_unit=nM reported_result=121
molecule="CC(C)C1CCN1Cc1ccc(CNC(=O)c2ccc3nncn3c2)cc1 (stereo not shown) [inhibitor 13]" study_target="ENL YEATS (Homo sapiens)" endpoint_unit=nM reported_result=1260
molecule="CC(C)[C@@H]1CCN1Cc1cc2cnc(NC(=O)c3ccc4nncn4c3)cc2[nH]1 [SR-C-107 (S)]" study_target="ENL YEATS (Homo sapiens)" endpoint_unit=nM reported_result=1380
molecule="CC(C)[C@H]1CCN1Cc1cc2cnc(NC(=O)c3ccc4nncn4c3)cc2[nH]1 [SR-C-107 (R)]" study_target="ENL YEATS (Homo sapiens)" endpoint_unit=nM reported_result=40

### Prompt What value of measured IC50 is listed for C[C@H]1CCCN1Cc1cc2cnc(NC(=O)c3ccc4nncn4c3)cc2[nH]1 [YR-D-120] ?
### Response 183

### Prompt What value of measured IC50 is listed for CC(C)[C@H]1CCN1Cc1ccc(CNC(=O)c2ccc3nncn3c2)cc1 [13 (R)] ?
### Response 2260

* * *

Measured IC50 values are reported for all entries that follow.
- Study target: NLuc-ENL YEATS (Homo sapiens)
- Construct: DNA encoding the ENL YEATS domain (aa 1–148) was cloned into an NLuc containing plasmid
- Assay notes: ENL-NanoBRET inhibitor competitive assay
- Run parameters: HEK293T cells stably expressing NLuc-ENL YEATS, 1 μM Tracer 2, 2 h; mean ± SD, n = 3
Dear colleague, please return just the value in µM, with no unit written.

compound="C[C@H]1CCCN1Cc1cc2cnc(NC(=O)c3ccc4nncn4c3)cc2[nH]1 [YR-D-120]" reported_result=2.02
compound="CC(C)C1CCN1Cc1cc2cnc(NC(=O)c3ccc4nncn4c3)cc2[nH]1 (centres unmarked) [SR-C-107]" reported_result=1.48
compound="O=C(NCc1cccc(CN2CCC2)c1)c1ccc2nncn2c1 [inhibitor 15]" reported_result=3.26
compound="CC(C)[C@H]1CCN1Cc1cc2cnc(NC(=O)c3ccc4nncn4c3)cc2[nH]1 [SR-C-107 (R)]" reported_result=0.59

### Prompt What value of measured IC50 is listed for CC(C)[C@@H]1CCN1Cc1cc2cnc(NC(=O)c3ccc4nncn4c3)cc2[nH]1 [SR-C-107 (S)] ?
### Response 5.67

* * *

- Assay notes: Cell toxicity assay (CCK-8), MV4-11
- Format: cell-based
- Run parameters: human, MV4-11 cells, 8 day treatment, n = 3; read-out: CC50 MV4-11 (Cellular IC50, 8-days incubation)
Readout label: IC50 at 8 days (µM)
Dear colleague, please return just the value in µM, with no unit written.

Here's what some known entries look like.
compound="CC(C)C1CCN1Cc1ccc(CNC(=O)c2ccc3nncn3c2)cc1 (stereo not shown) [inhibitor 13]" endpoint_unit=µM reported_result=6.72
compound="CC(C)[C@H]1CCN1Cc1cc2cnc(NC(=O)c3ccc4nncn4c3)cc2[nH]1 [SR-C-107 (R)]" endpoint_unit=µM reported_result=0.81

// below: IC50 at 8 days requested for another compound
### Prompt What value of measured IC50 at 8 days is listed for O=C(Nc1cc2[nH]c(CN3CCC3C3CC3)cc2cn1)c1ccc2nncn2c1 [YR-D-121] ?
### Response 14.2

* * *

- Assay notes: Log D at pH 7.4 (chromatographic procedure)
- Assay type: physicochemical
- Run parameters: n-octanol / aqueous buffer pH 7.4, pH 7.4
Rule: chromatographic logD under 0.9 gives NO, otherwise YES.

Below are worked cases with known answers.
compound=O=C(NCc1ccc(CN2CCC2)cc1)c1ccc2nncn2c1 class_label=NO
compound=C[C@H]1CCCN1Cc1cc2cnc(NC(=O)c3ccc4nncn4c3)cc2[nH]1 class_label=NO
compound=O=C(NCc1ccc(CNc2ncc(F)cn2)cc1)c1ccc2nncn2c1 class_label=YES
compound="O=C(Nc1cc2[nH]c(CN3CCC3C3CC3)cc2cn1)c1ccc2nncn2c1 (stereo not shown)" class_label=NO
compound=O=C(NCc1cccc(CN2CCC2)c1)c1ccc2nncn2c1 class_label=NO
compound="CC(C)[C@H]1CCN1Cc1cc2cnc(NC(=O)c3ccc4nncn4c3)cc2[nH]1 [SR-C-107 (R)]" class_label=YES

### Prompt Identify whether the reported chromatographic logD of the following compound is 0.9 or greater: CC1CCN1Cc1ccc(CNC(=O)c2ccc3nncn3c2)cc1 (stereo not shown)
### Response NO

### Prompt Identify whether the reported chromatographic logD of the following compound is 0.9 or greater: "CSc1ccc(CNC(=O)c2ccc3nncn3c2)cc1"
### Response YES

### Prompt Identify whether the reported chromatographic logD of the following compound is 0.9 or greater: CC(C)(C)C1CCN1Cc1ccc(CNC(=O)c2ccc3nncn3c2)cc1 (stereo not shown)
### Response NO

* * *

- Study target: NLuc-ENL YEATS fusion protein (Homo sapiens, UniProt Q03111)
- Construct: DNA encoding the ENL YEATS domain (aa 1–148) was cloned into an NLuc containing plasmid
- Sequence (Q03111 1-148): as the sequence (Q03111 1-148) above
- Assay notes: NanoBRET apparent tracer affinity
- Run parameters: HEK293T cells; nonspecific signal removed with 80 μM unlabeled compound 20
Readout label: pEC50
Hey, just a heads up that pEC50 is the negative log base 10 of the concentration in molar.

### Prompt What value of measured pEC50 is listed for "O=C(CCC1=[N+]2C(=Cc3ccc(-c4ccc[nH]4)n3[B-]2(F)F)C=C1)NCCCC(=O)Nc1cccc(-c2cn3cc(C(=O)NC4CCC4)ccc3n2)c1" ?
### Response 5.84

* * *

- Assay notes: In vitro metabolic stability assay in HLM
- Type: in vitro ADME, human
- Run parameters: in the presence of NADPH, 60 min
Readout label: parent compound remaining after 60 min incubation in HLM

Here's what some known entries look like.
compound="CC(C)C1CCN1Cc1ccc(CNC(=O)c2ccc3nncn3c2)cc1 (stereo not drawn)" reported_result="over 90%"
compound=C[C@H]1CCCN1Cc1cc2cnc(NC(=O)c3ccc4nncn4c3)cc2[nH]1 reported_result="over 90%"
compound=O=C(NCc1cccc(CN2CCC2)c1)c1ccc2nncn2c1 reported_result="over 90%"
compound="CC1CCN1Cc1ccc(CNC(=O)c2ccc3nncn3c2)cc1 (stereo not drawn)" reported_result="about 60%"
compound="O=C(Nc1cc2[nH]c(CN3CCC3C3CC3)cc2cn1)c1ccc2nncn2c1 (stereo not drawn)" reported_result="over 90%"

// below: parent compound remaining after 60 min incubation in HLM requested for another compound
### Prompt What value of measured parent compound remaining after 60 min incubation in HLM is listed for "CSc1ccc(CNC(=O)c2ccc3nncn3c2)cc1" ?
### Response about 60%

Values were extracted from paper PMC11613437.
